Listed sequences paired with reported folding stability dG unfold
# METHOD NOTES: folding stability dG unfold from trypsin proteolysis; higher = more stable
Give just the number in kcal/mol; leave the unit off.

Solved cases (2 shown):
                              sequence_text             measurement_kind  readout_number
0  SAGGSAGGSAGSPIDTLVEEKTFTLPNGEKVIEATLKRPPGEPVHVVTIETKDSVIVELESAGGSAGGSAGG [r17_316_JUSTAS]  folding stability dG unfold           0.513
1  SAGGSAGGSAKKPVTGTIILKYPGTPEDALAKAKEIAKELESRGYSVSAEFLPNGYIKITLPSAGGSAGGSA [r18_262_TrMRF]  folding stability dG unfold            1.48

Next up:
Consider the sequence SAGGSAGGSAGGDERVEVFEFDAPGGYRVRLVDFGDLALVAFISPDGRPAVIPVPRELLSAGGSAGGSAGGS [r10_1075_TrMRF] and give its measured folding stability dG unfold.
0.529
